assay.target: Type-1 angiotensin II receptor (Oryctolagus cuniculus, UniProt P34976)
Sequence (P34976 whole entry): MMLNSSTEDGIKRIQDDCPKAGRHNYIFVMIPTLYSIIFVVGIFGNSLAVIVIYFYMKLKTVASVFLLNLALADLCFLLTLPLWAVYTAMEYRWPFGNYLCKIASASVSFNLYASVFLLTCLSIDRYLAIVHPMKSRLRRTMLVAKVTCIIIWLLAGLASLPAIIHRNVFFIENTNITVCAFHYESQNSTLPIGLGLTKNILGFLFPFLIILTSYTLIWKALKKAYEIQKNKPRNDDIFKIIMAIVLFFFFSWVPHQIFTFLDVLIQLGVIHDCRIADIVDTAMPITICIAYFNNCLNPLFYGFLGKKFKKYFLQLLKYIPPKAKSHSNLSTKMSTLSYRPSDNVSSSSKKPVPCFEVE
protocol: Antagonist activity against AT1 receptor in Japanese White rabbit aortic strips assessed as reduction in angiotension-2-induced contractile response after 60 mins by Schild's plot analysis
assay.context: read-out: pA2 (converted)

| smiles.record | Kb, nM |
| --- | --- |
| CCCc1nc2c(C)cc(C(=O)NC[C@@H](C)c3ccccc3)cc2n1Cc1ccc(-c2ccccc2C(=O)O)cc1 | 1.86 |
| CCCc1nc2c(C)cc(C(=O)N[C@H](COC)c3ccccc3)cc2n1Cc1ccc(-c2ccccc2-c2nnn[nH]2)cc1 | 3.16 |
| CCCc1nc2c(C)cc(C(=O)NC[C@H](C)c3ccccc3)cc2n1Cc1ccc(-c2ccccc2-c2nnn[nH]2)cc1 | 1.78 |
| CCCc1nc2c(C)cc(C(=O)N[C@@H](CO)c3ccccc3)cc2n1Cc1ccc(-c2ccccc2-c2nnn[nH]2)cc1 | 15.8 |
